Recorded measurements of solubility at 24 h, one per entry
Test: Solubility of compound in 0.1 M phosphate buffer at pH 7.4 at 25 degC after 24 hrs
Assay type: physicochemical
Give the value, in units of µM, as a plain number.

# example entries with known answers
| SMILES_CODE | solubility at 24 h (µM) |
| --- | --- |
| O=C(NCCCN1CCCC1)c1cccc(-c2ccccc2N2CCN(CCc3ccc(Cl)c(Cl)c3)CC2)c1 | 34 |
| O=C(NCCCN1CCCC1)c1ccnc(-c2ccccc2N2CCN(CCc3c[nH]c4ccccc34)CC2)c1 | 923 |
| COc1cccc(CCN2CCN(c3ccccc3-c3cccc(C(=O)NCCCN4CCCC4)c3)CC2)c1 | 815 |
| O=C(NCCCN1CCCC1)c1cccc(-c2ccccc2N2CCN(CCc3c[nH]c4ccccc34)CC2)c1 | 246 |
| COc1cccc(CCN2CCN(c3ccccc3-c3cc(C#N)cc(C(=O)NCCCN4CCCC4)c3)CC2)c1 | 602 |

Let's switch to this compound now.
Query string: I have this compound here, COc1cccc(CNC2CCN(c3ccccc3-c3cncc(C(=O)NCCCN4CCCC4)c3)CC2)c1 , and I need its recorded solubility at 24 h.
Result string: 915
